# assay protocol: Selectivity index, ratio of GI50 for mouse RAW264.7 cells to MIC for Mycobacterium tuberculosis H37Rv ATCC 27294
# Format: toxicity
# condition info: read-out: Selectivity Index
Would you mind telling me the reported selectivity ratio of each entry?
One number for each entry.

Field: example entries. Status: answers known.
mol smiles: CC(C)=CCC/C(C)=C/COc1ccc(/C=C/C(=O)O)cc1
val: 3.14

mol smiles: CO[C@H]1/C=C/O[C@@]2(C)Oc3c(C)c(O)c4c(O)c(c(/C=N/N5CCN(C)CC5)c(O)c4c3C2=O)NC(=O)/C(C)=C\C=C\[C@H](C)[C@H](O)[C@@H](C)[C@@H](O)[C@@H](C)[C@H](OC(C)=O)[C@@H]1C
val: 14000

// each compound listed below needs its selectivity ratio
1. COC(=O)/C=C/c1ccc(OC/C=C(\C)CCC=C(C)C)cc1
2. CC(C)=CCOc1ccccc1/C=C/C(=O)O
3. O=C(O)/C=C/c1cccc(O)c1
4. O=C(O)/C=C/c1ccccc1

Return:
[1.25, 6.52, 14.5, 24.2]

State the recorded selectivity ratio for every item in the following list.
1. COC(=O)/C=C/c1ccccc1O
2. NNC(=O)c1ccncc1
3. COC(=O)/C=C/c1ccc(OCC=C(C)C)cc1
4. O=C(O)/C=C/c1ccc2c(c1)OCO2

Return:
1. 10
2. 30000
3. 6
4. 8.8

###

Field: MIC. Provide a value for each of the compounds that follow.
# Test system: Mycobacterium tuberculosis
# assay protocol: Antibacterial activity against Mycobacterium tuberculosis H37Rv ATCC 27294 after 2 weeks by spot culture growth inhibition assay
# Format: functional
# condition info: H37Rv ATCC 27294, 336 h

// solved cases for MIC follow
compound: CC(=O)Nc1ccc(O)cc1 [ACETAMINOPHEN]
MIC: > 661 µM

compound: CC(=O)Nc1cccc(O)c1 [METACETAMOL]
MIC: > 661 µM

# input for lookup
Enquiry: Reported MIC for COC(=O)/C=C/c1ccccc1OCC=C(C)C : what is it?
Return: > 406 µM

###

Please provide measured selectivity ratio for the entries that follow.
# assay protocol: Selectivity index, ratio of GI50 for mouse RAW264.7 cells to MIC for Mycobacterium tuberculosis H37Rv ATCC 27294
# Type: toxicity
# condition info: read-out: Selectivity Index

Please review the following examples before continuing.
compound: CC(=O)Nc1ccc(O)cc1 [ACETAMINOPHEN]
selectivity ratio: < 1.52

compound: COC(=O)/C=C/c1ccccc1OCC=C(C)C
selectivity ratio: < 6.4

Enquiry: Quick one: selectivity ratio of CC(=O)Nc1cccc(O)c1 [METACETAMOL] ?
Return: < 8.08
